Data provenance is PubChem BioAssay (NCI).

tested on: HL-60(TB) leukemia; assay: NCI tumour cell line growth inhibition, 48 h
experimental endpoint: TGI

1) COc1ccc2c(c1)[n+]([O-])c(-c1ccccc1Cl)c(N)[n+]2[O-] :: > 100 µM
2) COc1ccc2c(c1)/C(=N/OC(C)=O)c1c-2c(OC)nc2ccccc12 :: > 100 µM
3) Cc1ccc(Nc2nc(-c3ccc(-c4ccc([N+](=O)[O-])cc4)o3)cs2)cc1 :: > 100 µM
4) Cc1ccc(NC(=O)C2C3CCC(O3)C2C(=O)O)cc1 (stereo not given) :: > 60.6 µM
5) CN(CCCCCl)P(=O)(OCc1ccc([N+](=O)[O-])o1)OCC1OC(n2cc([N+](=O)[O-])c(=O)[nH]c2=O)CC1O (stereo not given) :: > 100 µM
6) CCOS(=O)(=O)c1ccc(-c2c3nc(c(-c4ccc(S(=O)(=O)OCC)cc4)c4ccc([nH]4)c(-c4ccc(S(=O)(=O)OCC)cc4)c4nc(c(-c5ccc(S(=O)(=O)OCC)cc5)c5ccc2[nH]5)C=C4)C=C3)cc1 :: > 31.6 µM
7) O=S(O)c1cc(Cl)c(O)c(Cl)c1 :: > 100 µM
8) O=C1NC(=NCCc2ccc(Br)cc2)S/C1=C\c1ccc2ncccc2c1 :: > 25 µM
9) CCOC(=O)N1CCC2(CC1)C[C@@](C(C)=O)(c1ccccc1)C(C)O2 (stereo not given in full) :: > 100 µM
10) COc1ccc2c(c1)/c(=C/C#N)c1c3ccccc3[n+](C)n21 :: > 48.3 µM
11) CCN(CC)CCC1CCCCN1CC(=O)N1c2cc(Cl)ccc2NC(=O)CC1C (stereo not given) :: > 100 µM
12) COC(=O)C(=O)C(C(=O)OC)C(=O)C(=O)Nc1c(Cl)cc([N+](=O)[O-])cc1Cl (stereo not given) :: > 100 µM
13) C[C@]12CCC(=O)C[C@@H]1CC[C@@H]1[C@@H]2CC[C@]2(C)[C@@H](OC(=O)N(CCCl)N=O)CC[C@@H]12 :: > 33 µM
14) COc1ccc(-c2cc(-c3ccc(Nc4ccnc5cc(Cl)ccc45)cc3)[nH]c(=O)c2C#N)cc1 :: > 100 µM
15) C=CCOC(=O)Cn1ccc(=O)[nH]c1=O :: > 100 µM

---

tested on: HCT-15 colon; experiment: NCI tumour cell line growth inhibition, 48 h
Catalogue of TGI readings, one per entry.
experimental endpoint: TGI

1. O=C1C(=C([O-])c2ccccc2)C(=O)c2ccccc21.O=C1C(=C([O-])c2ccccc2)C(=O)c2ccccc21.[Ni+2] :: > 100 µM
2. CN(C)c1ccc2[nH]c3c(C(N)=O)cc(=O)c(=O)c=3oc2c1 :: > 100 µM
3. O=c1[nH]c2ccc(CC(=S)N3CCOCC3)cc2o1 :: > 100 µM

---

test system: UACC-62 melanoma; assay: NCI tumour cell line growth inhibition, 48 h
Catalogue of TGI readings, one per entry.
experimental endpoint: TGI

1. C=C(C)CCC1C=[N+]([O-])OC(C)(C)C1(C)C (stereo not drawn) :: > 100 µM
2. COc1cccc(OC)c1NC(=O)C(=O)Nn1c(NNC(=O)c2ccncc2)nc2ccccc2c1=O :: > 100 µM
3. C(=C/c1nnnn1-c1ccccc1)/Nc1ccccc1 :: > 100 µM

---

Catalogue of TGI readings, one per entry.
test system: HT29 colon; test: NCI tumour cell line growth inhibition, 48 h
experimental endpoint: TGI

1. COc1ccc(-c2nnc3n(C)c4ccccc4n3c2=O)cc1 :: > 100 µM
2. Oc1[nH]c2ccccc2c1C=Nc1ccc(-n2cncn2)cc1 :: > 25 µM
3. O=C1C(=C([O-])c2ccccc2)C(=O)c2ccccc21.O=C1C(=C([O-])c2ccccc2)C(=O)c2ccccc21.[Ni+2] :: > 100 µM
4. CCCCOC(=O)NC(=O)c1cn(CCCOC(=O)CCCCCCCCC(=O)OCCCn2cc(C(=O)NC(=O)OCCCC)c(=O)n(C)c2=O)c(=O)n(C)c1=O :: > 100 µM
5. CC(=O)[C@@]1(c2ccccc2)CC2(CCN(C)CC2)O[C@H]1C :: > 100 µM
6. C[C@]12CCC(=O)C[C@@H]1CC[C@@H]1[C@@H]2CC[C@]2(C)[C@@H](OC(=O)N(CCCl)N=O)CC[C@@H]12 :: > 39 µM
7. CN(C)c1ccc2[nH]c3c(C(N)=O)cc(=O)c(=O)c=3oc2c1 :: > 100 µM
8. CSc1nc(NCc2ccccc2)c2cnn(COCCO)c2n1 :: > 100 µM

---

system: MALME-3M melanoma; test: NCI tumour cell line growth inhibition, 48 h
experimental endpoint: TGI

1) O=C1NC(=NCCc2ccc(Br)cc2)S/C1=C\c1ccc2ncccc2c1 :: > 25 µM
2) C=CCSC(C)=O :: > 100 µM
3) O=C1CC(c2ccccc2)n2c(nc3ccccc32)N1 (stereo not drawn) :: > 100 µM

---

system: HOP-92 NSCLC; assay: NCI tumour cell line growth inhibition, 48 h
Catalogue of GI50 readings, one per entry.
experimental endpoint: GI50

1. Cn1c(=O)c2[nH]c(SC/C(=N/O)c3ccc(Br)cc3)nc2n(C)c1=O :: 2020 nM
2. N#CC1=C(N)OC2=C(CCOc3c2ccc2ccccc32)C1c1ccc(Br)cc1 (centres undefined) :: 14100 nM
3. O=C1/C(=C/c2ccc([N+](=O)[O-])o2)Oc2ccc(Cl)cc21 :: 1450 nM
4. Cc1cc(N(CCNc2ccnc3cc(Cl)ccc23)Cc2ccc3c(c2)OCO3)nc(N2CCCC2)n1 :: 695 nM

---

tested on: MOLT-4 leukemia; experiment: NCI tumour cell line growth inhibition, 48 h
experimental endpoint: log10 TGI (log10 of the value in µM)

1) COc1ccc2c3/c(=C\c4ccc(N(C)C)cc4)c4ccccc4n3[n+](C)c2c1 :: 1.45
2) CCOC(=O)/C=C1/SC(=Nc2ccc(C#N)cc2)N(Cc2ccco2)C1=O :: 0.92
3) CC1(C)C(=O)/C=C\C(=O)C(C)(C)C(=O)/C=C\C(=O)C(C)(C)C2=CC=C(O2)C(C)(C)C(=O)/C=C\C1=O :: 0.68
4) Cc1[nH]c2cc([N+](=O)[O-])ccc2c1[N+](=O)[O-] :: 1.85
5) CCCCCCCCN=C(NCCCCCCCC)SCc1cccc2ccccc12 :: 0.62
6) CC/C=C\C[C@H]1C/C=C2/C(=O)C(Cl)=C[C@@H]2C/C=C\CCCC(=O)O1 :: 0.34
7) COc1ccc2c(c1)-c1c(c3cc(OC)ccc3n(CCN(C)C)c1=O)C2=O :: -0.02
8) CC12O[C@H](C[C@@H](OC(=O)CCC(=O)O)[C@H]1O)n1c3ccccc3c3c4c(c5c6ccccc6n2c5c31)C(=O)NC4=O :: 1.26
9) CCOCCOCCOCCOCCOCCOCCOCCOCCOCCO (tested in a mixture with another compound) :: 0.23
10) CSc1nc(NCc2ccccc2)c2cnn(COCCO)c2n1 :: 1.94
11) COC(=O)CC1=C(C)/C(=C/c2[nH]c(-c3ccc[nH]3)cc2OC)N=C1C :: 0.54
12) O=C1Nc2ccc(Br)cc2/C1=N/N1C(=O)C(=O)N(C2CCCCC2)C1=S :: 1.22
13) COC(=O)C1(Cc2ccccc2)Cc2cc3c(cc2C1O)CCC3 (configuration not stated) :: 1.63

---

Catalogue of TGI readings, one per entry.
tested on: SF-295 CNS; test: NCI tumour cell line growth inhibition, 48 h
Where a SMILES comes first, the peptide text is derived from it. [ ]: non-standard residue; d: D form. The star is where a group is joined. ξ: configuration not given here. NMeF = CN[CH](Cc1ccccc1)C(=O)O; ξNMe2Val = CC(C)C(C(=O)*)N(C)C; NMeV = CN[CH](C(=O)O)C(C)C; OtBu = CC(C)(C)O*
experimental endpoint: TGI

1) Cc1ccnc(Nc2[nH]c(C(=O)c3ccc(Cl)cc3)c(N)c2C(=S)Nc2ccccc2)c1 :: 36.8 µM
2) CC(C)(C)OC(=O)N1N=CCC1c1ccccc1 (centres undefined) :: > 100 µM
3) CC1CN(CCO)CCN1c1ccccc1 (centres undefined) :: > 100 µM
4) CC#COS(=O)(=O)c1ccc(C)cc1 :: > 100 µM
5) O=c1[nH]c(=O)n(C2CC(O)C(CO)O2)cc1Br (centres undefined) :: > 100 µM
6) CCC(c1ccccc1)c1cc(C(C)(C)C)cc(C(C)(C)C)c1O (centres undefined) :: 26.9 µM
7) CC(C)C(C(=O)N(C)C(Cc1ccccc1)C(=O)N(C)C(C(=O)N(C)C(C(=O)N1CCCC1C(=O)OC(C)(C)C)C(C)C)C(C)C)N(C)C (centres undefined) (ξNMe2Val-[NMeF][NMeV][NMeV]P-OtBu; configuration not given here) :: > 100 µM
8) N#COc1ccc(Oc2ccc(OC#N)cc2)cc1 :: > 100 µM
9) N#CC1=C(N)OC2=C(CCOc3c2ccc2ccccc32)C1c1ccc(Br)cc1 (centres undefined) :: 83.8 µM
